Consider the following compounds; for each one, report its IC50.
# target of assay: CDK7/CycH/MAT1 (Homo sapiens (Human))
# Sequence (P50613 whole entry): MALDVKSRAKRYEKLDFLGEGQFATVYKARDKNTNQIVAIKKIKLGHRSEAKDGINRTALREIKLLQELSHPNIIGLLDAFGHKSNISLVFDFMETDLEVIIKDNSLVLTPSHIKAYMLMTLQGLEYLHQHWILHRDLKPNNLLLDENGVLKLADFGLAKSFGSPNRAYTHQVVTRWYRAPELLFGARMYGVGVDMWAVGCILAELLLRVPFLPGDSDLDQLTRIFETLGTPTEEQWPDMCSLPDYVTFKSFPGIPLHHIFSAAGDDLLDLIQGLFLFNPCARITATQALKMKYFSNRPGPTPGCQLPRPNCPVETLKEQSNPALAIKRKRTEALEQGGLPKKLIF
# Sequence (P51946 whole entry partner): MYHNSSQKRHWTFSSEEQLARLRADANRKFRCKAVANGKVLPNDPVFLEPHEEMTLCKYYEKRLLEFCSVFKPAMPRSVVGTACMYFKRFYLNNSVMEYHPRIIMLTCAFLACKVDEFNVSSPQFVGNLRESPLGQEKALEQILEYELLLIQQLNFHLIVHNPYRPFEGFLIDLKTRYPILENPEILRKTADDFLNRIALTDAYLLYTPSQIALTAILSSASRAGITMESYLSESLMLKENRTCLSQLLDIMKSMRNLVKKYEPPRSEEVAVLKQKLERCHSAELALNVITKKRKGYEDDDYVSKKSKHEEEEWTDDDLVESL
# Sequence (P51948 whole entry partner): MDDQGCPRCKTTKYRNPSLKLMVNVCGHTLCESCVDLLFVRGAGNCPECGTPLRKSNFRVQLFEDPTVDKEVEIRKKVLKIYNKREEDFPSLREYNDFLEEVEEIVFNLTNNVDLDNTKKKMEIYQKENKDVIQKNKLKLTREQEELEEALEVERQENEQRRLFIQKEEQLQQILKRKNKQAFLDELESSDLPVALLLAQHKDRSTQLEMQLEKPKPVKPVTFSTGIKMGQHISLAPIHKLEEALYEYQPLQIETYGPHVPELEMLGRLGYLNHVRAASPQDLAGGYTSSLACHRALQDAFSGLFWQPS
# assay protocol: Radiometric protein kinase assay (33PanQinase), Assay Condition A (thiol containing)
# condition notes: thiol containing (1.2 mM DTT), ATP 3.0 μM

q: Provide IC50, tested on CDK7/CycH/MAT1 (Homo sapiens (Human)), for `C=CC(=O)Nc1ccc(C(=O)N2CCC[C@@H](Nc3ncc4cc(C)ccc4n3)C2)cc1` .
a: 30 to 100 µM

q: Provide IC50, tested on CDK7/CycH/MAT1 (Homo sapiens (Human)), for `CCC(=O)Nc1ccc(C(=O)N2CC[C@@H](Nc3cc4ccccc4cn3)C2)cc1` .
a: 1 to 10 µM

q: Provide IC50, tested on CDK7/CycH/MAT1 (Homo sapiens (Human)), for `CCC(=O)Nc1ccc(C(=O)N2CC[C@@H](Nc3ncc4cc(C)ccc4n3)C2)cc1` .
a: 1 to 10 µM

q: Provide IC50, tested on CDK7/CycH/MAT1 (Homo sapiens (Human)), for `CC#CC(=O)Nc1ccc(C(=O)N2CC[C@@H](Nc3ncc4ccccc4n3)C2)cc1` .
a: 0.1 to 1 µM

q: Provide IC50, tested on CDK7/CycH/MAT1 (Homo sapiens (Human)), for `CCC(=O)Nc1ccc(C(=O)N2CC[C@@H](Nc3ncc4cc(OC)ccc4n3)C2)cc1` .
a: 30 to 100 µM

q: Provide IC50, tested on CDK7/CycH/MAT1 (Homo sapiens (Human)), for `CCC(=O)Nc1ccc(C(=O)N2CC[C@@H](Nc3ncc4ccc(S(C)(=O)=O)cc4n3)C2)cc1` .
a: 1 to 10 µM

q: Provide IC50, tested on CDK7/CycH/MAT1 (Homo sapiens (Human)), for `CCC(=O)Nc1ccc(C(=O)N2CCC[C@@H](Nc3ncc4ccc(OC)cc4n3)C2)cc1` .
a: 30 to 100 µM

q: Provide IC50, tested on CDK7/CycH/MAT1 (Homo sapiens (Human)), for `CN(C)C/C=C/C(=O)Nc1ccc(C(=O)N2CC[C@@H](Nc3ncc4ccccc4n3)C2)cc1` .
a: 0.1 to 1 µM

###

# target of assay: CDK2/CycA2 (Homo sapiens (Human), UniProt P24941)
# assay protocol: Radiometric protein kinase assay (33PanQinase), Assay Condition A (thiol containing)
# condition notes: thiol containing (1.2 mM DTT), ATP 0.3 μM
Consider the following molecules; for each one, report its IC50.

q: Dear colleague, please send me the reported IC50 for `C=CC(=O)Nc1ccc(C(=O)N2CCC[C@@H](Nc3ncc4ccc(C(=O)O)cc4n3)C2)cc1` when you can.
a: 1 to 10 µM

q: Dear colleague, please send me the reported IC50 for `C=CS(=O)(=O)Nc1ccc(C(=O)N2CC[C@@H](Nc3ncc4ccccc4n3)C2)cc1` when you can.
a: 1 to 10 µM

q: Dear colleague, please send me the reported IC50 for `C=CC(=O)Nc1cccc(C(=O)N2CC[C@@H](Nc3ncc4ccccc4n3)C2)c1` when you can.
a: 0.1 to 1 µM

q: Dear colleague, please send me the reported IC50 for `C=CC(=O)Nc1ccc(C(=O)N2CC[C@@H](Nc3ncc4cc(C)ccc4n3)C2)cc1` when you can.
a: 1 to 10 µM

q: Dear colleague, please send me the reported IC50 for `C=CC(=O)Nc1ccc(C(=O)N2CCC[C@@H](Nc3ncc4ccc(C)cc4n3)C2)cc1` when you can.
a: 30 to 100 µM

q: Dear colleague, please send me the reported IC50 for `CCC(=O)Nc1ccc(C(=O)N2CC[C@@H](Nc3ncc4ccc(S(C)(=O)=O)cc4n3)C2)cc1` when you can.
a: 0.1 to 1 µM

q: Dear colleague, please send me the reported IC50 for `CCC(=O)Nc1ccc(C(=O)N2CCC[C@@H](Nc3cc4ccccc4cn3)C2)cc1` when you can.
a: 30 to 100 µM

q: Dear colleague, please send me the reported IC50 for `CCC(=O)Nc1ccc(C(=O)N2CC[C@@H](Nc3ncc4ccc(OC)cc4n3)C2)cc1` when you can.
a: 0.1 to 1 µM

q: Dear colleague, please send me the reported IC50 for `CCC(=O)Nc1ccc(C(=O)N2CCC[C@@H](Nc3ncc4ccc(S(C)(=O)=O)cc4n3)C2)cc1` when you can.
a: 10 to 30 µM

q: Dear colleague, please send me the reported IC50 for `CCC(=O)Nc1ccc(C(=O)N2CC[C@@H](Nc3ncc4cc(OC)ccc4n3)C2)cc1` when you can.
a: 10 to 30 µM

q: Dear colleague, please send me the reported IC50 for `CCC(=O)Nc1ccc(C(=O)N2CC[C@@H](Nc3ncc4cc(C)ccc4n3)C2)cc1` when you can.
a: 1 to 10 µM

q: Dear colleague, please send me the reported IC50 for `CCC(=O)Nc1ccc(C(=O)N2CCC[C@@H](Nc3ncc4ccc(Cl)cc4n3)C2)cc1` when you can.
a: 30 to 100 µM

q: Dear colleague, please send me the reported IC50 for `C=CC(=O)Nc1ccc(C(=O)N2CC[C@@H](Nc3ncc4cc(OC)ccc4n3)C2)cc1` when you can.
a: 10 to 30 µM

q: Dear colleague, please send me the reported IC50 for `C=CC(=O)Nc1c(C)cc(C(=O)N2CC[C@@H](Nc3ncc4ccccc4n3)C2)cc1F` when you can.
a: 10 to 30 µM

q: Dear colleague, please send me the reported IC50 for `C=CC(=O)Nc1ccc(C(=O)N2CC[C@@H](Nc3ncc4ccncc4n3)C2)cc1` when you can.
a: 0.1 to 1 µM

q: Dear colleague, please send me the reported IC50 for `CCC(=O)Nc1ccc(C(=O)N2CCC[C@@H](Nc3ncc4ccc(F)cc4n3)C2)cc1` when you can.
a: 30 to 100 µM

q: Dear colleague, please send me the reported IC50 for `CCC(=O)Nc1ccc(C(=O)N2CC[C@@H](Nc3ncc4ccc(C#N)cc4n3)C2)cc1` when you can.
a: 0.1 to 1 µM

q: Dear colleague, please send me the reported IC50 for `CCC(=O)Nc1ccc(C(=O)N2CC[C@@H](Nc3ncc4cc(Cl)ccc4n3)C2)cc1` when you can.
a: 1 to 10 µM

q: Dear colleague, please send me the reported IC50 for `CCC(=O)Nc1ccc(C(=O)N2CC[C@@H](Nc3cc4ccccc4cn3)C2)cc1` when you can.
a: 1 to 10 µM

q: Dear colleague, please send me the reported IC50 for `CCC(=O)Nc1ccc(C(=O)N2CCC[C@@H](Nc3ncc4ccccc4n3)C2)cc1` when you can.
a: 30 to 100 µM

q: Dear colleague, please send me the reported IC50 for `CCC(=O)Nc1ccc(C(=O)N2CC[C@@H](Nc3ncc4ccc(C(N)=O)cc4n3)C2)cc1` when you can.
a: ≤ 0.1 µM

q: Dear colleague, please send me the reported IC50 for `C=CC(=O)Nc1ccc(C(=O)N2CCC[C@@H](Nc3ncc4cc(Cl)ccc4n3)C2)cc1` when you can.
a: 30 to 100 µM

q: Dear colleague, please send me the reported IC50 for `C=CC(=O)Nc1ccc(C(=O)N2CC[C@@H](Nc3ncc4ccccc4n3)C2)cc1C` when you can.
a: 1 to 10 µM
